B1: Osa-1-4 twister ribozyme (parent)
chain: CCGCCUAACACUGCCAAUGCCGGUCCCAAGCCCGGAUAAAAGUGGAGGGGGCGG

Variants of: B1
Assay: self-cleavage, relative activity (ratio to wild type); higher = more cleavage; co-transcriptional
Value Kind: self-cleavage
One number for each entry.

A17C A36G : 0.75
C9A G35A : 0.24
G30U G51C : 0.03
C27G U37G : 0.16
A40U C26G : 0.08

State recorded self-cleavage for all listed variants.
1. A29U A40G
2. A16C G13A
3. C21G G35U
4. C32G G49A

A)
[0.08, 0.08, 0.06, 0.05]

Please state self-cleavage for every variant in the list that follows.
1. G34C U43A
2. C52G U24C

A)
0.09
0.22

// data source = the RNAGym collection of RNA variant scans (doi:10.1002/anie.201605470)
